Listing of entries alongside the reported pKi.
- target.entity: purified human plasma kallikrein (Homo sapiens (Human), UniProt P03952)
- Sequence (P03952 whole entry, looked up): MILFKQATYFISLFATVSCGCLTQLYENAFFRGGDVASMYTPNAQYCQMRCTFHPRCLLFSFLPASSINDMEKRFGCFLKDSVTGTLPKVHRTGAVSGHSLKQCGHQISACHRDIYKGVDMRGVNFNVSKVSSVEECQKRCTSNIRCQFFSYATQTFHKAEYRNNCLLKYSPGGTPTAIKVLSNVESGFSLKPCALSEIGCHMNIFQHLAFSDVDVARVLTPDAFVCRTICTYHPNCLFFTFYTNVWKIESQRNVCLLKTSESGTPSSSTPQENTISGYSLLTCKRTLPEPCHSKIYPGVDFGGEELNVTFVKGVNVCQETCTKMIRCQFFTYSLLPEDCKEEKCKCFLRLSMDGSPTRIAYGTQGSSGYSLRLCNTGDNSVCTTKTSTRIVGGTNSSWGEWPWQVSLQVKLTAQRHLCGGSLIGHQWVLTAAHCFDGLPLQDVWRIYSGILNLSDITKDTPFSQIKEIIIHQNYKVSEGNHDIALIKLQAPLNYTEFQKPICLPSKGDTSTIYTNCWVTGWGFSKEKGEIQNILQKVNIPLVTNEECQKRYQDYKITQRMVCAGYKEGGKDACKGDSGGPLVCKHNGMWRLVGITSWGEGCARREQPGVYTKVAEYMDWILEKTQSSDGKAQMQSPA
- Sequence (P03952 whole entry partner, looked up): as the sequence (P03952 whole entry, looked up) above
- assay.summary: biochemical
- Type: biochemical
- test.context: read-out: Plasma Kallikrein Ki
Structures can show the parent of a compound that is named as a salt.
Scale explanation: pKi corresponds to minus log10 of a concentration expressed in moles per litre.

Guide cases for pKi, answers given:
COC(=O)c1ccc2c(c1)-c1cccc(c1)[C@H](N1CCC(c3c(Br)ccc(Cl)c3F)=CC1=O)CCC[C@@H](C)C(=O)N2 [Example 175] :: 5.42
C[C@@H]1CCC[C@H](N2CCC(c3c(F)ccc(Cl)c3F)=CC2=O)c2cc(ccn2)-c2ccc(Nc3nnc(C4CC4)o3)cc2NC1=O [Example 39, TFA salt] :: 8.70

Report pKi from purified human plasma kallikrein (Homo sapiens (Human), UniProt P03952) testing of C[C@@H]1CCC[C@H](N2CCC(c3c(Br)ccc(Cl)c3F)=CC2=O)c2cc(ccn2)-c2c(F)cc(F)cc2NC1=O [Example 202]
7.52

Report pKi from purified human plasma kallikrein (Homo sapiens (Human), UniProt P03952) testing of COC(=O)Nc1ccc2c(c1)C(=O)NCCCC[C@H](N1CCC(c3c(F)ccc(Cl)c3F)=CC1=O)c1cc-2ccn1 [Example 24, TFA salt]
6.67

Report pKi from purified human plasma kallikrein (Homo sapiens (Human), UniProt P03952) testing of C[C@@H]1CCC[C@H](N2CCC(c3c(F)cccc3C#N)=CC2=O)c2cc(ccn2)-c2ccccc2NC1=O [Example 50, TFA salt]
6.89

Report pKi from purified human plasma kallikrein (Homo sapiens (Human), UniProt P03952) testing of COC(=O)Nc1ccc2c(c1)NC(=O)[C@H](C)CCC[C@H](N1CCC(c3cccc(Cl)n3)=CC1=O)c1cc-2ccn1 [Example 157, TFA salt]
6.97

Report pKi from purified human plasma kallikrein (Homo sapiens (Human), UniProt P03952) testing of COC(=O)c1ccc2c(c1)-c1cccc(c1)[C@@H](N1CCC(c3c(F)ccc(Cl)c3F)=CC1=O)CCC[C@@H](C)C(=O)N2 [Example 164]
6.35

Report pKi from purified human plasma kallikrein (Homo sapiens (Human), UniProt P03952) testing of COC(=O)Nc1cc2c(cc1I)-c1ccnc(c1)[C@@H](N1CCC(c3c(F)ccc(Cl)c3F)=CC1=O)CCC[C@@H](C)C(=O)N2 [Example 62, TFA salt]
5.96

Report pKi from purified human plasma kallikrein (Homo sapiens (Human), UniProt P03952) testing of CO[C@H]1[C@H](O)[C@@H](CO)OC(Nc2ccc3c(c2)NC(=O)[C@H](C)CCC[C@H](N2CCC(c4c(F)ccc(Cl)c4F)=CC2=O)c2cc-3ccn2)[C@@H]1O (stereo partly drawn) [Example 129]
7.66

Report pKi from purified human plasma kallikrein (Homo sapiens (Human), UniProt P03952) testing of COC(=O)Nc1ccc2c(c1)NC(=O)[C@H](C)CCC[C@H](N1CCC(c3c(C(F)(F)F)ccc(Cl)c3F)=CC1=O)c1cc-2ccn1 [Example 25, TFA salt]
7.92

Report pKi from purified human plasma kallikrein (Homo sapiens (Human), UniProt P03952) testing of C[C@@H]1CCC[C@H](N2CCC(c3c(F)ccc(Cl)c3F)=CC2=O)c2cccc(c2)-c2cc(C(=O)O)ccc2NC1=O [Example 166]
6.95

Report pKi from purified human plasma kallikrein (Homo sapiens (Human), UniProt P03952) testing of C[C@@H]1CCC[C@H](N2CCC(c3c(Br)ccc(Cl)c3F)=CC2=O)c2cc(ccn2)-c2cc(F)c(F)cc2NC1=O [Example 206, TFA salt]
7.56

Report pKi from purified human plasma kallikrein (Homo sapiens (Human), UniProt P03952) testing of C[C@@H]1CCC[C@H](N2CCC(c3c(F)ccc(Cl)c3F)=CC2=O)c2cc(ccn2)-c2cc(C(=O)O)c(N)cc2NC1=O [Example 198, TFA salt]
9.00

Report pKi from purified human plasma kallikrein (Homo sapiens (Human), UniProt P03952) testing of COC(=O)Nc1ccc2c(c1)NC(=O)[C@H](C)CCC[C@H](N1CCC(c3ccccc3OC)=CC1=O)c1cc-2ccn1 [Example 116]
6.13
